system: colonic microbiota (fecal inoculum of two healthy adults); experiment: Microbiome diversity, alpha and beta (second set); assay type: cell-based, human; conditions: 5× dose; donor D
Where a name gives a salt, the structure may show the parent alone.
quantity_name: beta-diversity (Bray-Curtis distance to control)

compound | reported_result
Cc1ncc(CO)c(CO)c1O.Cl [pyridoxine, Pyridoxine Hydrochloride] | increases beta-diversity
O=C(O)CCCC[C@@H]1SC[C@@H]2NC(=O)N[C@@H]21 | increases beta-diversity
Cc1ncc(C[n+]2csc(CCO)c2C)c(N)n1 [thiamine, Thiamine Hydrochloride] | increases beta-diversity
NC(=O)c1cccnc1 [niacinamide, Niacinamide] | increases beta-diversity
